system: BDNF-induced nuclear Arc expression in primary cortical neurons; test: Chemogenomic screen: high-content image-based assay of BDNF-induced nuclear Arc expression (96-well); assay type: cell-based, mouse; details: nuclear Arc-positive cells relative to DMSO + BDNF control; negative values = decrease
endpoint.label: Fold-change — Normalized to DMSO control (BDNF)
Don't forget the unit after the value.

Worked cases, answers included:
O=C(O)[C@H]1O[C@@H](Oc2cc3oc(-c4ccccc4)cc(=O)c3c(O)c2O)[C@H](O)[C@@H](O)[C@@H]1O [Baicalin] = 1.8 fold
CNS(=O)(=O)Cc1ccc2[nH]cc(CCN(C)C)c2c1 [Sumatriptan succinate] = 1.2 fold
O=C(COc1ccc(Cl)cc1)N1CCN(Cc2ccc3c(c2)OCO3)CC1 [Fipexide] = 2.1 fold
COc1cc(N)c(Cl)cc1C(=O)NC1CCN(Cc2ccccc2)CC1 [Clebopride] = 1.3 fold

Q. Request: Fold-change — Normalized to DMSO control (BDNF), test system BDNF-induced nuclear Arc expression in primary cortical neurons, entry Cc1ncc(CSSCc2cnc(C)c(O)c2CO)c(CO)c1O [Pyrithioxine]
A. 1.1 fold

Q. Request: Fold-change — Normalized to DMSO control (BDNF), test system BDNF-induced nuclear Arc expression in primary cortical neurons, entry CC(C)(C)OC(=O)c1ncn2c1[C@@H]1CCCN1C(=O)c1c(Br)cccc1-2 [Bretazenil]
A. 2.0 fold

###

# Fold-change — Normalized to DMSO control (BDNF) per entry
tested on: BDNF-induced nuclear Arc expression in primary cortical neurons; assay: Chemogenomic screen: high-content image-based assay of BDNF-induced nuclear Arc expression (96-well); assay type: cell-based, mouse; settings: nuclear Arc-positive cells relative to DMSO + BDNF control; negative values = decrease
Counter-ions that a name gives are not always drawn. Non-standard residues stand in square brackets, D forms with d. Residues, ends and D or L forms follow the SMILES beside them. dTrp(2-Me) = Cc1[nH]c2ccccc2c1C[C@@H](N)C(=O)O
Don't forget the unit after the value.

Worked cases, answers included:
O=C(CCCN1CCC(O)(c2ccc(Br)cc2)CC1)c1ccc(F)cc1 [Bromperidol] = 1.5 fold
CN1CCN(C2=Nc3ccccc3Oc3ccc(Cl)cc32)CC1 [Loxapine] = 1.1 fold
N[C@@H]1C[C@H]1c1ccccc1 [Tranylcypromine hydrochloride] = 1.4 fold

Q. Request: Fold-change — Normalized to DMSO control (BDNF), test system BDNF-induced nuclear Arc expression in primary cortical neurons, entry Cc1[nH]c2ccccc2c1C[C@@H](NC(=O)[C@@H](N)Cc1cnc[nH]1)C(=O)N[C@@H](C)C(=O)N[C@@H](Cc1c[nH]c2ccccc12)C(=O)N[C@H](Cc1ccccc1)C(=O)N[C@@H](CCCCN)C(N)=O [Hexarelin] (H-H[dTrp(2-Me)]AW[dF]K-NH2)
A. -1.1 fold

Q. Request: Fold-change — Normalized to DMSO control (BDNF), test system BDNF-induced nuclear Arc expression in primary cortical neurons, entry O=C(c1ccccc1)c1ccc2n1CCC2C(=O)O (stereo not drawn) [Ketorolac]
A. 1.9 fold

Q. Request: Fold-change — Normalized to DMSO control (BDNF), test system BDNF-induced nuclear Arc expression in primary cortical neurons, entry CN(C)CC(c1ccc(O)cc1)C1(O)CCCCC1 (stereo not drawn) [Desvenlafaxine]
A. 1.7 fold

Q. Request: Fold-change — Normalized to DMSO control (BDNF), test system BDNF-induced nuclear Arc expression in primary cortical neurons, entry CN1CCc2c(c3ccccc3n2Cc2ccc(C(=O)NO)cc2)C1 [Tubastatin A]
A. 1.1 fold

Q. Request: Fold-change — Normalized to DMSO control (BDNF), test system BDNF-induced nuclear Arc expression in primary cortical neurons, entry Cc1nc(C(=O)NCC(=O)O)c(O)c2ccc(Oc3ccccc3)cc12 [FG-4592]
A. 1.4 fold

Q. Request: Fold-change — Normalized to DMSO control (BDNF), test system BDNF-induced nuclear Arc expression in primary cortical neurons, entry C[C@H](O)[C@H](O)[C@H]1CNc2nc(N)[nH]c(=O)c2N1 [Sapropterin]
A. 2.6 fold

Q. Request: Fold-change — Normalized to DMSO control (BDNF), test system BDNF-induced nuclear Arc expression in primary cortical neurons, entry O=C1[C@@H]2[C@H]3CC[C@H](C3)[C@@H]2C(=O)N1CCCCN1CCN(c2ncccn2)CC1 [Tandospirone]
A. 1.3 fold

###

tested on: BDNF-induced nuclear Arc expression in primary cortical neurons; test: Chemogenomic screen: high-content image-based assay of BDNF-induced nuclear Arc expression (96-well); format: cell-based, mouse; details: nuclear Arc-positive cells relative to DMSO + BDNF control; negative values = decrease
# Fold-change — Normalized to DMSO control (BDNF) per entry
Give a bare numeral; the unit fold is implied.

Worked cases, answers included:
OC[C@H]1O[C@@H](OCCc2ccc(O)cc2)[C@H](O)[C@@H](O)[C@@H]1O [Salidroside] = 1.6
C#CCN(C)[C@H](C)Cc1ccccc1 = 1.5

Q. Tell me the measured Fold-change — Normalized to DMSO control (BDNF) of O=C(O)c1cccc(-c2noc(-c3ccccc3F)n2)c1 , please.
A. 2.0

###

tested on: BDNF-induced nuclear Arc expression in primary cortical neurons; experiment: Chemogenomic screen: high-content image-based assay of BDNF-induced nuclear Arc expression (96-well); type: cell-based, mouse; details: nuclear Arc-positive cells relative to DMSO + BDNF control; negative values = decrease
endpoint.label: Fold-change — Normalized to DMSO control (BDNF)
Don't forget the unit after the value.

Cc1ccc2c(c1)c1c(n2CCc2ccc(C)nc2)CCN(C)C1 [Latrepirdine] = 1.8 fold

Q. Tell me the measured Fold-change — Normalized to DMSO control (BDNF) of NC(=O)C1=CN([C@@H]2O[C@H](COP(=O)(O)OP(=O)(O)OC[C@H]3O[C@@H](n4cnc5c(N)ncnc54)[C@H](O)[C@@H]3O)[C@@H](O)[C@H]2O)C=CC1 [NADH] , please.
A. 1.3 fold

Q. Tell me the measured Fold-change — Normalized to DMSO control (BDNF) of COC1=CC(=O)O[C@@H](/C=C/c2ccc3c(c2)OCO3)C1 [Kavahin] , please.
A. 1.9 fold

Q. Tell me the measured Fold-change — Normalized to DMSO control (BDNF) of CN1CCc2cc3c(cc2[C@H]1[C@@H]1OC(=O)c2c1ccc1c2OCO1)OCO3 [(+)-Bicuculline] , please.
A. 1.1 fold

Q. Tell me the measured Fold-change — Normalized to DMSO control (BDNF) of OCCCCC#Cc1cncc(OC[C@@H]2CCN2)c1 [Sazetidine A] , please.
A. 1.8 fold

Q. Tell me the measured Fold-change — Normalized to DMSO control (BDNF) of CC(C)n1c(=O)n(C(=O)NC2CC3CCC(C2)N3C)c2ccccc21 (stereo not drawn) [BIMU-8] , please.
A. -1.2 fold

Q. Tell me the measured Fold-change — Normalized to DMSO control (BDNF) of Clc1ccc2nsnc2c1NC1=NCCN1 [Tizanidine] , please.
A. 1.8 fold

Q. Tell me the measured Fold-change — Normalized to DMSO control (BDNF) of CCCC(CCC)C(N)=O [Valpromide] , please.
A. 1.0 fold

Q. Tell me the measured Fold-change — Normalized to DMSO control (BDNF) of NC(=O)N1c2ccccc2CC(=O)c2ccccc21 [Oxcarbazepine] , please.
A. 1.2 fold

###

tested on: BDNF-induced nuclear Arc expression in primary cortical neurons; assay: Chemogenomic screen: high-content image-based assay of BDNF-induced nuclear Arc expression (96-well); assay type: cell-based, mouse; conditions: nuclear Arc-positive cells relative to DMSO control (BDNF); negative = decrease
Non-standard residues stand in square brackets, D forms with d. Residues, ends and D or L forms follow the SMILES beside them. αMeP = C[C@@]1(C(=O)O)CCCN1
endpoint.label: Fold-change — Normalized to DMSO control (BDNF) (fold)
Give a bare numeral; the unit fold is implied.

Worked cases, answers included:
C[C@@]1(C(=O)N[C@@H](CCC(=O)O)C(=O)O)CCCN1C(=O)CN [NNZ-2566] (H-Gly-[αMeP]-Glu-OH) = -2.9
O=C(c1ccc2c(c1)OCCO2)N1CCCCC1 [CX-546] = -3.0
COc1ccccc1C1(O)CCN(CCCn2c3ccccc3c3ccccc32)CC1 [NNC 05-2090] = 0.0
Cn1sc(=O)n(Cc2ccccc2)c1=O [TDZD-8] = -11.7
COc1ccc(CNC(=O)Nc2ncc([N+](=O)[O-])s2)cc1 [AR-A014418] = -4.0
COc1cc2c(NC3CCN(C4CCCCC4)CC3)nc(N3CCCN(C(C)C)CC3)nc2cc1OCCCN1CCCCC1 [UNC 0646] = -3.7
OC(CNc1ccccc1)Cn1c2ccc(Br)cc2c2cc(Br)ccc21 (centres unmarked) [P7C3] = -11.2
COc1cc2c(cc1OC)-c1cc3ccc(OC)c(OC)c3c[n+]1CC2 [Palmatine] = -17.5

Q. Request: Fold-change — Normalized to DMSO control (BDNF), test system BDNF-induced nuclear Arc expression in primary cortical neurons, entry CC[C@H](C)[C@H](NC(=O)[C@H](CO)NC(=O)[C@@H](NC(=O)[C@@H]1CCCN1C(=O)[C@H](C)NC(=O)[C@@H](N)CC(N)=O)C(C)C)C(=O)N1CCC[C@H]1C(=O)N[C@@H](CCC(N)=O)C(=O)O [AL-108]
A. -2.3

Q. Request: Fold-change — Normalized to DMSO control (BDNF), test system BDNF-induced nuclear Arc expression in primary cortical neurons, entry C#CCN(C)CCCOc1ccc(Cl)cc1Cl [Clorgyline]
A. -2.6

Q. Request: Fold-change — Normalized to DMSO control (BDNF), test system BDNF-induced nuclear Arc expression in primary cortical neurons, entry O=C(O)C(O)C(O)C(=O)O.c1cnc2cc3c(cc2n1)[C@@H]1CNC[C@H]3C1 [Chantix]
A. -1.9

Q. Request: Fold-change — Normalized to DMSO control (BDNF), test system BDNF-induced nuclear Arc expression in primary cortical neurons, entry O=C(O)c1cc2cc(O)c(O)cc2c(C(=O)c2ccc(O)c(O)c2)n1 [NBI-31772]
A. -7.3

Q. Request: Fold-change — Normalized to DMSO control (BDNF), test system BDNF-induced nuclear Arc expression in primary cortical neurons, entry COc1cc(/C=C/C(=O)C(=Cc2ccc(F)c(F)c2)C(=O)/C=C/c2ccc(O)c(OC)c2)ccc1O [3,4-Difluorobenzocurcumin]
A. -14.1

Q. Request: Fold-change — Normalized to DMSO control (BDNF), test system BDNF-induced nuclear Arc expression in primary cortical neurons, entry Clc1ccc(C23CNCC2C3)cc1Cl (centres unmarked) [DOV-216,303]
A. -3.0
